Source of measurements: ChEMBL document CHEMBL1208771

- assay target: Plasmepsin II (Plasmodium falciparum)
- Sequence (P46925 whole entry): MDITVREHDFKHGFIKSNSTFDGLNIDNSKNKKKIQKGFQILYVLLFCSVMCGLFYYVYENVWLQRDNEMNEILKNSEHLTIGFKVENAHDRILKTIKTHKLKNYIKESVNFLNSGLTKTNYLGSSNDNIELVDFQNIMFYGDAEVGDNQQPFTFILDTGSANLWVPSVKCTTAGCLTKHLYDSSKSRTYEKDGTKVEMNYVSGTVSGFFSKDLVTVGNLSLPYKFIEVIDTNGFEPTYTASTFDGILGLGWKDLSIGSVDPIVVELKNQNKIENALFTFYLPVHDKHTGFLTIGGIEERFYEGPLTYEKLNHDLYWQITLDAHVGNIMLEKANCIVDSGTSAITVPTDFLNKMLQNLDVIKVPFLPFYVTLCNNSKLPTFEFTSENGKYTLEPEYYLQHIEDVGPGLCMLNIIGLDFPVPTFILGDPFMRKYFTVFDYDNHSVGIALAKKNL
- experimental protocol: Inhibition of Plasmodium falciparum plasmepsin-2
Label key: 1 (yes) means Ki under 4 nM; 0 (no) means Ki of 4 nM or more.

In [3]: df
Out[3]:
                                test_smiles      cat
0  Cc1cc(N(C)CCN)cc(C)c1OCC(=O)N[C@@H](Cc1ccccc1)[C@H](O)C(=O)N1CSC(C)(C)[C@H]1C(=O)N[C@H]1c2ccccc2C[C@H]1O   0 (no)
1  Cc1cc(NCCN(C)C)cc(C)c1OCC(=O)N[C@@H](Cc1ccccc1)[C@H](O)C(=O)N1CSC(C)(C)[C@H]1C(=O)N[C@H]1c2ccccc2C[C@H]1O   0 (no)
2  Cc1cc(NCCN)cc(C)c1OCC(=O)N[C@@H](Cc1ccccc1)[C@H](O)C(=O)N1CSC(C)(C)[C@H]1C(=O)N[C@H]1c2ccccc2C[C@H]1O   0 (no)
3  CCNCCNc1cc(C)c(OCC(=O)N[C@@H](Cc2ccccc2)[C@H](O)C(=O)N2CSC(C)(C)[C@H]2C(=O)N[C@H]2c3ccccc3C[C@H]2O)c(C)c1  1 (yes)
4  CCNCCN(CC)c1cc(C)c(OCC(=O)N[C@@H](Cc2ccccc2)[C@H](O)C(=O)N2CSC(C)(C)[C@H]2C(=O)N[C@H]2c3ccccc3C[C@H]2O)c(C)c1   0 (no)

Could you please tell me whether Ki recorded for CNCCN(C)c1cc(C)c(OCC(=O)N[C@@H](Cc2ccccc2)[C@H](O)C(=O)N2CSC(C)(C)[C@H]2C(=O)N[C@H]2c3ccccc3C[C@H]2O)c(C)c1 is less than 4 nM? 1 (yes)

Could you please tell me whether Ki recorded for CCN(CC)CCN(CC)c1cc(C)c(OCC(=O)N[C@@H](Cc2ccccc2)[C@H](O)C(=O)N2CSC(C)(C)[C@H]2C(=O)N[C@H]2c3ccccc3C[C@H]2O)c(C)c1 is less than 4 nM? 0 (no)

Could you please tell me whether Ki recorded for Cc1cc(N(C)CCN(C)C)cc(C)c1OCC(=O)N[C@@H](Cc1ccccc1)[C@H](O)C(=O)N1CSC(C)(C)[C@H]1C(=O)N[C@H]1c2ccccc2C[C@H]1O is less than 4 nM? 1 (yes)
